Source listed as ChEMBL document CHEMBL4422685.

Biological target: Multidrug efflux pump subunit AcrB (Escherichia coli (strain K12))
Experiment: Inhibition of AcrB in wild-type drug-resistant Escherichia coli […] assessed as potentiation of erythromycin-induced antimicrobial activity by measuring erythromycin MIC at 64 ug/ml by checkerboard titration method (reference value: 64 ug/ml)
REPORTED METRIC: MIC (µg/mL)
Provide only the numeric value, understood in µg/mL.

Worked cases, MIC given:
Ask | Returns the measured MIC for the input compound. Input: COc1cccc2cc3c(cc12)C(=O)N(Cc1ccccc1Cl)C3=O
Reply | 64

Ask | Returns the measured MIC for the input compound. Input: CCCCCN1C(=O)c2cc3cccc(OC)c3cc2C1=O
Reply | 32

Ask | Returns the measured MIC for the input compound. Input: COc1cccc2cc3c(cc12)C(=O)N(C(C)(C)C)C3=O
Reply | 32

Ask | Returns the measured MIC for the input compound. Input: COc1cccc2cc3c(cc12)C(=O)N(Cc1ccccc1)C3=O
Reply | 32

Ask | Returns the measured MIC for the input compound. Input: COc1ccccc1CN1C(=O)c2cc3cccc(OC)c3cc2C1=O
Reply | 64

Others:
Ask | Returns the measured MIC for the input compound. Input: COc1cccc2cc3c(cc12)C(=O)N(c1ccccc1Cl)C3=O
Reply | 64

Ask | Returns the measured MIC for the input compound. Input: COc1cccc2cc3c(cc12)C(=O)N(C1CCCC1)C3=O
Reply | 16

Ask | Returns the measured MIC for the input compound. Input: COc1cccc2cc3c(cc12)C(=O)N(C)C3=O
Reply | 32

Ask | Returns the measured MIC for the input compound. Input: CCc1ccccc1N1C(=O)c2cc3cccc(OC)c3cc2C1=O
Reply | 64

Ask | Returns the measured MIC for the input compound. Input: COc1cccc2cc3c(cc12)C(=O)N(C(C)C)C3=O
Reply | 32

Ask | Returns the measured MIC for the input compound. Input: COc1ccc(CN2C(=O)c3cc4cccc(OC)c4cc3C2=O)cc1
Reply | 32

Ask | Returns the measured MIC for the input compound. Input: CCCCCCN1C(=O)c2cc3cccc(OC)c3cc2C1=O
Reply | 16

* * *

Molecular target: Multidrug efflux pump subunit AcrB (Escherichia coli (strain K12))
Test: Inhibition of AcrB in wild-type drug-resistant Escherichia coli […] assessed as potentiation of chloramphenicol-induced antimicrobial activity by measuring chloramphenicol MIC at 32 ug/ml by checkerboard titration method (Rvb =16 ug/ml)
REPORTED METRIC: MIC (µg/mL)
Provide only the numeric value, understood in µg/mL.

Worked cases, MIC given:
Ask | Returns the measured MIC for the input compound. Input: COc1cccc2cc3c(cc12)C(=O)N(C1CCCC1)C3=O
Reply | 16

Ask | Returns the measured MIC for the input compound. Input: COc1cccc2cc3c(cc12)C(=O)N(C(C)C)C3=O
Reply | 8

Ask | Returns the measured MIC for the input compound. Input: COc1cccc2cc3c(cc12)C(=O)N(C(C)(C)C)C3=O
Reply | 16

Ask | Returns the measured MIC for the input compound. Input: CCCCCCN1C(=O)c2cc3cccc(OC)c3cc2C1=O
Reply | 16

Ask | Returns the measured MIC for the input compound. Input: COc1cccc2cc3c(cc12)C(=O)N(Cc1ccccc1Cl)C3=O
Reply | 16

Others:
Ask | Returns the measured MIC for the input compound. Input: COc1cccc2cc3c(cc12)C(=O)N(Cc1ccccc1)C3=O
Reply | 16

Ask | Returns the measured MIC for the input compound. Input: COc1cccc2cc3c(cc12)C(=O)N(C)C3=O
Reply | 16

Ask | Returns the measured MIC for the input compound. Input: CCCCCN1C(=O)c2cc3cccc(OC)c3cc2C1=O
Reply | 8
